- System: Escherichia coli
- Assay Method Text: Antibacterial activity against Escherichia coli ATCC 25922 assessed as reduction in microbial growth incubated for 24 hrs by broth microdilution method
- Format: functional
Response field label takes Criterion met when MIC is strictly below 4 µg/mL and Criterion not met in all other cases.

- COc1c(N2C[C@@H]3CCCN(Cc4c(CO)nc(C)c(O)c4CO)[C@@H]3C2)c(F)cc2c(=O)c(C(=O)O)cn(C3CC3)c12.Cl: Criterion met

QUERY: Hello, is MIC of the following compound strictly smaller than 4 µg/mL? CCn1cc(C(=O)O)c(=O)c2cc(F)c(N3CCNC(C)C3)c(F)c21 (configuration not stated)
RESULT: Criterion met

QUERY: Do the same for CCCCCCCCC1OCc2c(CN3CCN(c4cc5c(cc4F)c(=O)c(C(=O)O)cn5C4CC4)CC3)cnc(C)c2O1 (configuration not stated) please
RESULT: Criterion not met

QUERY: Do the same for "Cc1ncc(CN2CCN(c3cc4c(cc3F)c(=O)c(C(=O)O)cn4C3CC3)CC2)c2c1OCOC2.Cl" please
RESULT: Criterion not met

QUERY: Do the same for "COc1c(N2C[C@@H]3CCCN(Cc4cnc(C)c(O)c4C)[C@@H]3C2)c(F)cc2c(=O)c(C(=O)O)cn(C3CC3)c12.Cl.Cl" please
RESULT: Criterion met

QUERY: Do the same for COc1c(N2C[C@@H]3CCCN(Cc4cnc(C)c5c4COC(C)O5)[C@@H]3C2)c(F)cc2c(=O)c(C(=O)O)cn(C3CC3)c12 (some centres not stated) please
RESULT: Criterion not met
